test system: lipoperoxide production in homogenized brain; assay: Lipoperoxide inhibitory activity (natural oxidation of homogenized rat brain, malonodialdehyde by TBA method); assay type: biochemical, Sprague-Dawley rat; details: 10^-5 M test compound
MEASURED PARAMETER: Lipoperoxide inhibition rate (%)
Answers are plain numbers, in %.

Field: example entries. Status: answers known.
compound="Cc1cc(C)c2ncc(NC(=O)C3(C)CCc4c(C)c(O)c(C)c(C)c4O3)c(-c3ccccc3Cl)c2c1 (centres unmarked)" unit_label=% observed_result=98.5
compound=Cc1cc(C)c2ncc(NC(=O)C=Cc3cccc(O)c3O)c(-c3ccccc3Cl)c2c1 unit_label=% observed_result=99.7
compound=CC1=C(C(=O)Nc2cnc3c(C)cc(C)cc3c2-c2ccccc2Cl)Sc2cc(F)ccc2N1 unit_label=% observed_result=100

List Lipoperoxide inhibition rate for every entry below, keeping the order given.
1. Cc1cc(C)c2ncc(NC(=O)C3(C)Cc4c(C)c(O)c(C)c(C)c4O3)c(-c3ccccc3Cl)c2c1 (centres unmarked)
2. CC(=O)Oc1c(C)c(C)c2c(c1C)CC(C)(C(=O)Nc1cnc3c(C)cc(C)cc3c1-c1ccccc1Cl)O2 (centres unmarked)

*A*
1: 98.4; 2: 71.6
